target or system: T1, recombinant human ASM protein (human, UniProt P17405 47-630)
T1 construct: Recombinant human ASM in solution; also called acid sphingomyelinase (ASM) protein
T1 sequence: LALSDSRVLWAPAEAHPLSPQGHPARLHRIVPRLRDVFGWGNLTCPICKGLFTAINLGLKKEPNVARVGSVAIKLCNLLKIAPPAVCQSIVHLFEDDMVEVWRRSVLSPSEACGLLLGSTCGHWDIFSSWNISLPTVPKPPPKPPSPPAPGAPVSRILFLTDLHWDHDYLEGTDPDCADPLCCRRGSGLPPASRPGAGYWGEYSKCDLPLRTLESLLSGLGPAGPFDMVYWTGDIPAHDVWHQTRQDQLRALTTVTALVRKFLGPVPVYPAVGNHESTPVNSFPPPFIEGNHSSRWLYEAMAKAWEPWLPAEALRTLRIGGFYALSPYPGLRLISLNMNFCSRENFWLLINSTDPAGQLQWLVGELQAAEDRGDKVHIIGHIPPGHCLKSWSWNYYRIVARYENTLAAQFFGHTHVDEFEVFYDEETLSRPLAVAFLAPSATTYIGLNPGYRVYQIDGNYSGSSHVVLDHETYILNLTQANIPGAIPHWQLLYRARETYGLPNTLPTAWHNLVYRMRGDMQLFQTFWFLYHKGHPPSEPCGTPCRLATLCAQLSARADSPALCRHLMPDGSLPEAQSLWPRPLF
assay text: BLI (Octet), antibody on AHC sensor
Overview of reported Kd across a group of binders:
Give your result in nM as a bare value.

Solved cases below.
| binder | measured result |
| --- | --- |
| #9104a-B1 (antibody, human IgG4 S228P, lambda, V domains shown, VH of #9104v-H10 with VL of #9104v-L21; full-length IgG, lambda) VH: EVQLLESGGGLVQPGGSLRLSCAASGFTFSNYYMSWVRQAPGKGLEWVSGIYYGNGIPYYADSVKDRFTISRDNSKNTLYLQMNSLRAEDTAVYYCARDTPGFDYWGQGTLVTVSS VL: QSVLTQPPSASGTPGQRVTISCTGSSSNIGNNAVNWYQQLPGTAPKLLIYYDMFRPNGVPDRFSGSKSGTSASLAISGLRSEDEADYYCGAWDYSLSAYVFGGGTKLTVLG | 0.137 |
| #9104a-D8 (antibody, human IgG4 S228P, lambda, V domains shown, VH of #9104v-H33 with VL of #9104v-L64; full-length IgG, lambda) VH: EVQLLESGGGLVQPGGSLRLSCAASGFTFSNYYMSWVRQAPGKGLEWVSGVYYPSGNPYYADSVKGRFTISRDNSKNTLYLQMNSLRAEDTAVYYCARDTPGFDYWGQGTLVTVSS VL: QSVLTQPPSASGTPGQRVTISCTGSSSNIGNNAVNWYQQLPGTAPKLLIYYDYFSHSGVPDRFSGSKSGTSASLAISGLRSEDEADYYCGAWDYSLSAYVFGGGTKLTVLG | 0.177 |

From here, focus on the item given below.
Problem: Report Kd, nothing else, for this binder: #9104a-C1 (antibody, human IgG4 S228P, lambda, V domains shown, VH of #9104v-H10 with VL of #9104v-L23; full-length IgG, lambda) VH: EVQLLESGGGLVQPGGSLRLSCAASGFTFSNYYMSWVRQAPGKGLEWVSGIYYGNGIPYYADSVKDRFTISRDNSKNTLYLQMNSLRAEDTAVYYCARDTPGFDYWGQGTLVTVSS VL: QSVLTQPPSASGTPGQRVTISCTGSSSNIGNNAVNWYQQLPGTAPKLLIYYDQFRPSGVPDRFSGSKSGTSASLAISGLRSEDEADYYCGAWDYSLSAYVFGGGTKLTVLG
Solution: 0.139
